Molecular target: Cytochrome P450 3A4 (Homo sapiens) (UniProt P08684)
Sequence (P08684 whole entry, looked up): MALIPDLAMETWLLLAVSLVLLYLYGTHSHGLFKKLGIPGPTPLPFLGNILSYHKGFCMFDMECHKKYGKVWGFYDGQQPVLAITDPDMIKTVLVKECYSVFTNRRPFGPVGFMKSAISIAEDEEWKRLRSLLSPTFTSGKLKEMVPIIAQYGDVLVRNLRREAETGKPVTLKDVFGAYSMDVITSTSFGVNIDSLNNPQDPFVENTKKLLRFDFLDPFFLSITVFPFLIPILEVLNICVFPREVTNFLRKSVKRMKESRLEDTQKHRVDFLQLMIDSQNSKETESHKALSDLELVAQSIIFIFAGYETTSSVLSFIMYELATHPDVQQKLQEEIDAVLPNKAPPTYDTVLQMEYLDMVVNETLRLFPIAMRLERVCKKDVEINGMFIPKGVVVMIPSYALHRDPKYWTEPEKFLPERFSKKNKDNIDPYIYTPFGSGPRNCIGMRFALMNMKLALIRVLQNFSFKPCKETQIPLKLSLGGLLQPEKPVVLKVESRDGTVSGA
Assay: Cytochrome panel assay with activity outcomes
Settings: recombinant CYP, pro-luciferin dealkylation, luminescence, p450-cyp3a4; series mostly up to 57.1 µM
Hit rate of the full screen: of about 16,000 compounds, about 5,100 (32%) were called active. Roughly 25% stayed inconclusive and do not appear here. Calls come from the whole dose curve; as a rule, active = well fitted curve in the direction sought with a large enough effect; inconclusive = small, poorly fitted or top-dose-only effect, or effect the other way; inactive = no such curve, though single readings can be large or run the other way. Some of the results follow.
Assign a class; possible classes are active, inactive

Example results:
molecule | assigned-label
COc1ncc2nc(-c3ccccc3)c(=O)n(-c3ccccc3)c2n1 | inactive
COc1cccc(Cn2nnc3c(=O)[nH]c(C4CCCN(C(=O)c5ccccc5Cl)C4)nc32)c1 (stereo not drawn) | active
COc1ccc(NC(=O)c2ccc(C(=O)c3cc(OC)ccc3OC)cc2)cc1 | inactive
O=C(N/N=C/c1ccncc1)c1cc2c(ccc3ccccc32)o1 | active
COc1cccc(-c2noc(Cn3nc(C)c([N+](=O)[O-])c3C)n2)c1 | active

Given C[C@@H](C1=C(CCN(C)C)Cc2ccccc21)c1ccccn1 , state the outcome it received in this test.
inactive

For C=CC[C@@H]1C=C[C@H](O/N=C(\C)CCN2CCc3nc(-c4ccccc4)c(-c4ccccc4)cc3C2)[C@H](CO)O1 , what call appears in the results of this test?
active

// param item: Cc1cccc(CNc2ncnc3ccc(-c4ccc(C(=O)N(C)C)cc4)cc23)c1 ; yields the recorded call
active

GET /call?item= N#C/C(=C\c1cc(Cl)cc(Cl)c1O)C(=O)NC1CCCCC1 returns the recorded outcome of this test.
active

What did this assay record as the result for COC(=O)N1CCC2(CCN(C(=O)Nc3ccc(OC)cc3)CC2)CC1 ?
inactive

Entry CCCCOC(OCCCC)[C@H](O)CSc1ccc2ccccc2c1 : call = ?
active

Could you check what this test reported for CCCNC(=O)OC[C@@H]1O[C@H](CCO/N=C(\C)CCN2CCc3nc(-c4ccccc4)c(-c4ccccc4)cc3C2)C=C[C@@H]1Oc1ccc(OC)cc1 ?
active

Each molecule tested received a call. Report the one for CC(C)[C@H](N)c1nnc(SCc2ccc(Cl)cc2)o1 .
active

----------
Biological target: Cytochrome P450 3A4 (Homo sapiens)
Assay: Cytochrome panel assay with activity outcomes; for activity, negative = inhibition: % is set by controls: 0 for no effect and ±100 for the full control effect
Conditions: recombinant CYP, pro-luciferin dealkylation, luminescence, p450-cyp3a4; series mostly up to 57.1 µM
The campaign covered roughly 16,000 compounds. About 5,100 (32%) were called active. Another 25% or so got no clear call; they are omitted. This is one part of the list.
observed-property: activity, negative = inhibition

compound | activity, negative = inhibition
C/C(=N/O)c1ccc2cc(Br)c3ccccc3c2c1 | -23.8% [at 11.4 µM] (inactive)
CCC(=O)Nc1ncnc2ncn(C(=O)CC)c12 | -6.29% [at 11.4 µM] (inactive)
O=C(O)CCCc1ccc2ccccc2c1 | -5.59% [at 11.4 µM] (inactive)
C[C@@H]1NC(=O)C/C=C\[C@@H](C)[C@@H]2C=C[C@H](O)[C@@H](COC(=O)[C@H](C)NC(=O)C/C=C\[C@@H](C)[C@@H]3C=C[C@H](O)[C@@H](COC1=O)O3)O2 | 6.73% [at 11.4 µM] (inactive)
O=C1CCC(c2ccccc2)=NN1c1nc2ccccc2s1 | -23.1% [at 11.4 µM] (inactive)
O=C(O)[C@@H]1Cc2c([nH]c3ccccc23)[C@@H](CCCCO)N1 | 1.47% [at 11.4 µM] (inactive)
Cc1ccc2c(c1)N(CC(=O)NCc1cccs1)C(=O)C(C)O2 (configuration not stated) | -21.8% [at 2.29 µM] (inactive)
COc1ccc2c(c1)-c1c(sn(-c3ccc(OC)c(OC)c3)c1=S)C(C)(C)N2 | -15.9% [at 2.29 µM] (inactive)

For the compound Cn1c(=S)c2[nH]c(SCCN3C(=O)c4ccccc4C3=O)nc2n(C)c1=O , give its reported activity, negative = inhibition.
-20.9% [at 11.4 µM] (inactive)

In one line, give reported activity, negative = inhibition of the entry COc1ccc(CC(=S)N2CCOCC2)cc1OC .
-2.8% [at 2.29 µM] (inactive)

Give reported activity, negative = inhibition value for COc1cc(C(=O)NC(=S)Nc2ccc(Cl)c(C(=O)O)c2)cc(OC)c1OC
-9.66% [at 11.4 µM] (inactive)

Return the recorded activity, negative = inhibition value; entry: O=S1(=O)N[C@H]2CC[C@@H]3NS(=O)(=O)N[C@H]4CC[C@H](N1)N4S(=O)(=O)N23
5.02% [at 11.4 µM] (inactive)
